- TARGET_ENTITY: T1, HcoV-OC43 S protein (HcoV-OC43, UniProt P36334 14-1297)
- T1 sequence: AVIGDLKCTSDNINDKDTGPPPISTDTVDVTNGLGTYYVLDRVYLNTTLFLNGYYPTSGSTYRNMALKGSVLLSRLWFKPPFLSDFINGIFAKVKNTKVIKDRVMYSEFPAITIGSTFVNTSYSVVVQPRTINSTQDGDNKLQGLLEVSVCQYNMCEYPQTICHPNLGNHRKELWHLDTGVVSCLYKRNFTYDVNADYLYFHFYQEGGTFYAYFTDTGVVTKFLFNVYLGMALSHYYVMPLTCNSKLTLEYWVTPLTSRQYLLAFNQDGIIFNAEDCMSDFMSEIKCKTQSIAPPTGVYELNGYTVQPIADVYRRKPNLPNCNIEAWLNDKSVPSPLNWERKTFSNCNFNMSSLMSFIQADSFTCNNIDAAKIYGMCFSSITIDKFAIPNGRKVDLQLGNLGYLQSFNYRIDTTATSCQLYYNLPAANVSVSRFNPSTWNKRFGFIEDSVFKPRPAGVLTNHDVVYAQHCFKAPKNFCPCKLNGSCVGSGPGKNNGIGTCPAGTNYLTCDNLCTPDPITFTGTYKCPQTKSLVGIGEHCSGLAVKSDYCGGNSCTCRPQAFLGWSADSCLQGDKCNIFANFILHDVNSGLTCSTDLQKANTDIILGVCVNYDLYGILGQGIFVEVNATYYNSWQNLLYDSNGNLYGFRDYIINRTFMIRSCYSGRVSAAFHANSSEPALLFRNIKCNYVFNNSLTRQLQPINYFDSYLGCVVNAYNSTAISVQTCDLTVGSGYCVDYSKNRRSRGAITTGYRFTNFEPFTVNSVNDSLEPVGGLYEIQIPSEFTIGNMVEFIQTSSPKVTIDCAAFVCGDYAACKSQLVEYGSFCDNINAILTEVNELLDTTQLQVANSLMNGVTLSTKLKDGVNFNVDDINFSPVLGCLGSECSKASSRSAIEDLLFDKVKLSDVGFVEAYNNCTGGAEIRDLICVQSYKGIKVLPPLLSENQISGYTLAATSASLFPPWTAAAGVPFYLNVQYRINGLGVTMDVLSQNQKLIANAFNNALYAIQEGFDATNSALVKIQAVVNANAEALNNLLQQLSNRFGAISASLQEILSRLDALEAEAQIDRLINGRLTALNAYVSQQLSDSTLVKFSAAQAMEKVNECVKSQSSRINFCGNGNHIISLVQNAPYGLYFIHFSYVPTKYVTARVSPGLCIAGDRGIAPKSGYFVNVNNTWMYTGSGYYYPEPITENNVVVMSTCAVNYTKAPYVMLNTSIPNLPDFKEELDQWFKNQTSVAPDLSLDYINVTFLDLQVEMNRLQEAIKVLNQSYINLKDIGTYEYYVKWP
- EXPERIMENTAL_DETAILS: direct ELISA, OD450

{"BINDER": "rabbit monoclonal antibody 7G5 against the SARS-CoV-2 S1 (antibody, V domains shown) VH: QEQLEESGGDLVKPGASLTLTCTASGFSFSSAYYMCWVRQAPGKGLEWIACIGVDSGGNSYYASWAKGRFTISTTSSTTVTLQMTSLTAADKATYFCTRSFSLWGPGTLVTISS VL: RKWLTQTASSVSAAVGGTVTISCQASQSVYNNDNLAWFQQRPGQPPKLLIYLASNLASGVPPRFSGSGSGTQFTLTISDVQCDDAATYYCLGGYDCSNADCHAFGGGTEVVVKG", "binding result": "no binding"}
{"BINDER": "rabbit monoclonal antibody 1A3 against the SARS-CoV-2 S1 (antibody, V domains shown) VH: QSLEESGGRLVTPGTPLTLTCTVSGFSFSSYHMGWVRQAPGEGLEWIGTLIGIAGNTYYASWAKGRFSISKTSTTVDLKMTSPTTEDTATYWCARIVTATFEFWGPGTLVTVSS VL: AQVLTQTPSPVSAAVGGTVTISCQASQSVNMNLLSWFQQKPGQPPKLLIYQASNLASGVSARFKGSGSGTQFTLTINEIQCDDAATYYCQGDMGGWMFPFGGGTEVVVTG", "binding result": "no binding"}

# credit: patent US20220056111A1
